# System: Rattus norvegicus
# test: Tmax in Sprague-Dawley rat assessed as Tizoxanide level in plasma at 28 mg/kg, po
# Type: ADME, organism-based
# conditions: in vivo
measurement-kind: Tmax

CC(C)(C)[C@H](N)C(=O)Oc1ccccc1C(=O)Nc1ncc([N+](=O)[O-])s1.Cl | 5 to 15 min

* * *

# Test system: Plasma
# test: Elimination half life in Sprague-Dawley rat assessed as tizoxanide level in plasma at 10 to 75 mg/kg administered via oral gavage qd for 28 consecutive days
# Assay type: ADME, organism-based
# conditions: in vivo
measurement-kind: beta t1/2

O=C(Nc1ncc([N+](=O)[O-])s1)c1ccccc1O [TIZOXANIDE] | 0.7 to 3.7 h

* * *

# test: Oral bioavailability in human
# Assay type: ADME, organism-based
# conditions: in vivo
measurement-kind: bioavailability

CC(=O)Oc1ccccc1C(=O)Nc1ncc([N+](=O)[O-])s1 [NITAZOXANIDE] | ≤ 30%

* * *

# Tested on: Rattus norvegicus
# test: Tmax in Sprague-Dawley rat assessed as RM-4848-glucuronide level in plasma at 6.2 mg/kg, iv
# Type: ADME, organism-based
# conditions: in vivo
measurement-kind: Tmax

CC(C)(C)[C@H](N)C(=O)Oc1ccccc1C(=O)Nc1ncc(Cl)s1.Cl | 15 to 30 min

* * *

# Tested on: Rattus norvegicus
# test: Tmax in Sprague-Dawley rat assessed as RM-4848-glucuronide formation at 6.4 mg/kg, iv
# Assay type: ADME, organism-based
# conditions: in vivo
measurement-kind: Tmax

CC(=O)Oc1ccccc1C(=O)Nc1ncc(Cl)s1 | 15 to 60 min

* * *

# test: Drug excretion in po dosed human urine
# Assay type: ADME, organism-based
# conditions: read-out: Drug excretion
measurement-kind: dose excreted (%)

CC(=O)Oc1ccccc1C(=O)Nc1ncc([N+](=O)[O-])s1 [NITAZOXANIDE] | 33

* * *

# System: Rattus norvegicus
# test: Toxicity in Sprague-Dawley rat assessed as body weight gain at 75 mg/kg administered as oral gavage qd for 28 consecutive days measured during last 2 weeks of dosing relative to control
# Assay type: organism-based
# conditions: in vivo, 336 h
measurement-kind: Activity

CC(C)(C)[C@H](N)C(=O)Oc1ccccc1C(=O)Nc1ncc([N+](=O)[O-])s1.Cl | 4 to 5%

* * *

# Test system: Rattus norvegicus
# test: Tmax in Sprague-Dawley rat assessed as RM-4848-glucuronide level in plasma at 30 mg/kg, po administered as single dose
# Type: ADME, organism-based
# conditions: in vivo
measurement-kind: Tmax

CC(=O)Oc1ccccc1C(=O)Nc1ncc(Cl)s1 | 15 to 30 min

* * *

# Test system: Plasma
# test: Elimination half life in Sprague-Dawley rat assessed as tizoxanide-glucuronide level in plasma at 10 to 75 mg/kg administered via oral gavage qd for 28 consecutive days
# Format: ADME, organism-based
# conditions: in vivo
measurement-kind: beta t1/2

O=C(Nc1ncc([N+](=O)[O-])s1)c1ccccc1O[C@@H]1O[C@H](C(=O)O)[C@@H](O)[C@H](O)[C@H]1O | 1.5 to 11 h
